# target-under-test: hT1R2/hT1R3 sweet receptor expressed in HEK293 cell line (Homo sapiens, UniProt Q7RTX0+Q8TE23)
# Construct: expressed in transfected cells; host or cells: HEK293 derivative stably expressing Gα15 and hT1R2/hT1R3, clone S-9
# Sequence (Q8TE23 20-839): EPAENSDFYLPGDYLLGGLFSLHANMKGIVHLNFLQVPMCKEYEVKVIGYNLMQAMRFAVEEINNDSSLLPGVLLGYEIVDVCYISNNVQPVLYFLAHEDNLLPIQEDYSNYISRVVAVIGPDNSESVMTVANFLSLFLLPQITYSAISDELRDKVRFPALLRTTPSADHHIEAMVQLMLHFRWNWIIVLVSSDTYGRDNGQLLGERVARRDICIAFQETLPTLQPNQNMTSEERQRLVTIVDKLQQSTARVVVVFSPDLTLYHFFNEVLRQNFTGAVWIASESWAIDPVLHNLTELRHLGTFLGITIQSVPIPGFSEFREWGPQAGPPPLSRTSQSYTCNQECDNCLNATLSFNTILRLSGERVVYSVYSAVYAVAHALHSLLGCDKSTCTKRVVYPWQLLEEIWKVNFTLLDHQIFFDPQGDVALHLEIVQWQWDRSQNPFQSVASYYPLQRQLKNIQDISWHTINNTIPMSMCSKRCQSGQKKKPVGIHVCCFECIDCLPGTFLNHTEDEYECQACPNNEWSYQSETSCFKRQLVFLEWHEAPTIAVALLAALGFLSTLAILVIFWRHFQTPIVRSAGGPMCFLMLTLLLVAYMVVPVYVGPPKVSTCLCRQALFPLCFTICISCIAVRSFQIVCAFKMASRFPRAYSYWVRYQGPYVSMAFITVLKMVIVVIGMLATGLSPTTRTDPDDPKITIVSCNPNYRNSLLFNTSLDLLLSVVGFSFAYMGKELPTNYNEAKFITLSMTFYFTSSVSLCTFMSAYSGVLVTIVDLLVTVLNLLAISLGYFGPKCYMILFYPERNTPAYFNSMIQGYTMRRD
# Sequence (Q7RTX0 21-852): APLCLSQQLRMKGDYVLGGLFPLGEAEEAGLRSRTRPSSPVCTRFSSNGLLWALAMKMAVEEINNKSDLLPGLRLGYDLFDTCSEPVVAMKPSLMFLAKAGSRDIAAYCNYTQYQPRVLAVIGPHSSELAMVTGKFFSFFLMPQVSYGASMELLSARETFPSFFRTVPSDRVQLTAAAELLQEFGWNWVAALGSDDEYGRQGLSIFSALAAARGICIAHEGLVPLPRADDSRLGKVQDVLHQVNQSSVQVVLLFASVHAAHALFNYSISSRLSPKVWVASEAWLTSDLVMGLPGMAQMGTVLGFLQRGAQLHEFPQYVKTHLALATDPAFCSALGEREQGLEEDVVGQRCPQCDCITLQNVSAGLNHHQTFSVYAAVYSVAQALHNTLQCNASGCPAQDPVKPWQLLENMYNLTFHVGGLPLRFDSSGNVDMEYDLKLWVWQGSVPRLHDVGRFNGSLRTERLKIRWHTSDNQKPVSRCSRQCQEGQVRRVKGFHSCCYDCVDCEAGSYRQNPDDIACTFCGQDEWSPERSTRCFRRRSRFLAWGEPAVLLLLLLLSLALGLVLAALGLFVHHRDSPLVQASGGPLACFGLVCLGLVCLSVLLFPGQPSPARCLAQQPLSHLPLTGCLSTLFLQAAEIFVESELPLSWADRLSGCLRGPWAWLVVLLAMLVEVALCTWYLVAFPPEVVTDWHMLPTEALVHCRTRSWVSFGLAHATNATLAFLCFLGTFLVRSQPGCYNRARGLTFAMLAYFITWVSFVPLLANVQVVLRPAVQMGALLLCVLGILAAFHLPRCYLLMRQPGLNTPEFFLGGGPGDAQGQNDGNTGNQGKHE
# assay-summary: In vitro hT1R2/hT1R3-HEK293 taste receptor activation assay (FLIPR)
# Format: cell-based
# run-conditions: Table A; read-out: SWEET EC50
Please provide measured pEC50 for the entries that follow.
By convention, pEC50 is the negative base-10 log of a molar concentration.

# input # query: pEC50 of entry `CC(C)CNC(=O)C(C)(C)c1ccc(-c2cocc2/C=N/O)cc1`
# output 6.12

# input # query: pEC50 of entry `CC(C)CNC(=O)C(C)(C)c1ccc(-c2cccc3[nH]ccc23)cc1`
# output 5.69

# input # query: pEC50 of entry `CC(C)NC(=O)C(C)(C)c1ccc(-c2cncc(C#N)c2)cc1`
# output 6.03

# input # query: pEC50 of entry CCC(COC)NC(=O)C(C)c1ccc(-c2ccccc2)c(F)c1 (stereo not drawn)
# output 5.35

# input # query: pEC50 of entry `CCC(CC)NC(=O)C(C)(C)c1ccc(-c2cncc(C#N)n2)cc1`
# output 7.52

# input # query: pEC50 of entry `CCC[C@@H](CO)NC(=O)C(C)(C)c1ccc(-c2cncc(C#N)c2)cc1`
# output 5.78

# input # query: pEC50 of entry `COCc1cccc(-c2ccc(C(C)(C)C(=O)NC(C)C)cc2)c1`
# output 6.04

# input # query: pEC50 of entry `CCOc1cncc(-c2ccc(C(C)(C)C(=O)NCC(C)C)cc2)c1`
# output 5.80

# input # query: pEC50 of entry `COCc1cccc(-c2ccc(C(C)(C)C(=O)NCC(C)C)nc2)c1`
# output 5.52

The values you see were collected from patent US7842324B2.
